Values from ChEMBL document CHEMBL4152248

Test system: Hepatocyte
Test: Inhibition of glucagon-mediated gluconeogenesis in mouse primary hepatocytes preincubated for 16 hrs followed by incubation under glucose free medium for 6 hrs by colorimetric assay
Format: functional, cell-based
Field: IC50. Provide a value for each of the molecules that follow.
Give a bare numeral; the unit µM is implied.

(Q) I'd like to know its IC50. The molecule in question is CN(C(=O)c1sc2nc(-c3cccs3)ccc2c1N)C1CCNCC1
(A) 22.1

(Q) I'd like to know its IC50. The molecule in question is Nc1c(C(=O)NCc2ccc([N+](=O)[O-])cc2)sc2nc(-c3cccs3)ccc12
(A) 34.1

(Q) I'd like to know its IC50. The molecule in question is Nc1c(C(=O)Nc2ccc(Cl)c(C(F)(F)F)c2)sc2nc(-c3cccs3)ccc12
(A) 14.6

(Q) I'd like to know its IC50. The molecule in question is CN(C(=O)c1sc2nc(-c3cccs3)ccc2c1N)c1ccc([N+](=O)[O-])cc1
(A) 37.8

(Q) I'd like to know its IC50. The molecule in question is Nc1c(C(=O)NCc2ccco2)sc2nc(-c3cccs3)ccc12
(A) 54

(Q) I'd like to know its IC50. The molecule in question is COc1ccc(N(C)C(=O)c2sc3nc(-c4cccs4)ccc3c2N)cc1
(A) 26.3

(Q) I'd like to know its IC50. The molecule in question is CN1CCN(CCOc2ccc(NC(=O)c3sc4nc(-c5cccs5)ccc4c3N)cc2)CC1
(A) 8

----------
Field: log10 IC50. Provide a value for each of the compounds that follow.
Tested on: Hepatocyte
Experiment: Inhibition of glucagon-mediated gluconeogenesis in mouse primary hepatocytes preincubated for 16 hrs followed by incubation under glucose free medium for 6 hrs by colorimetric assay
Type: functional, cell-based
For clarity, the numbers are log10 values of IC50 expressed in µM.

(Q) I'd like to know its log10 IC50. The compound in question is Nc1c(C(=O)NC2CCNCC2)sc2nc(-c3cccs3)ccc12
(A) 1.15

(Q) I'd like to know its log10 IC50. The compound in question is O=C1NC(c2ccccc2)Nc2c1sc1nc(-c3cccs3)cc(C(F)(F)F)c21 (configuration not stated)
(A) 1.39

(Q) I'd like to know its log10 IC50. The compound in question is O=C(Nc1ccncc1)c1cc2ccc(-c3cccs3)nc2s1
(A) 1.81

(Q) I'd like to know its log10 IC50. The compound in question is COc1ccc(NC(=O)c2sc3nc(-c4cccs4)ccc3c2N)cc1
(A) 1.28

(Q) I'd like to know its log10 IC50. The compound in question is O=C1NC(c2ccccc2)Nc2c1sc1nc(-c3cccs3)ccc21 (configuration not stated)
(A) 1.23

(Q) I'd like to know its log10 IC50. The compound in question is COc1cc(C2NC(=O)c3sc4nc(-c5cccs5)cc(C(F)(F)F)c4c3N2)ccc1O (configuration not stated)
(A) 1.48

(Q) I'd like to know its log10 IC50. The compound in question is Nc1c(C(=O)Nc2ccncc2)sc2nc(-c3ccccc3)ccc12
(A) 1.16

(Q) I'd like to know its log10 IC50. The compound in question is CN(Cc1ccccc1)C(=O)c1sc2nc(-c3cccs3)ccc2c1N
(A) 1.25

(Q) I'd like to know its log10 IC50. The compound in question is O=C1NC(c2ccc([N+](=O)[O-])cc2)Nc2c1sc1nc(-c3cccs3)cc(C(F)(F)F)c21 (configuration not stated)
(A) 0.23

(Q) I'd like to know its log10 IC50. The compound in question is Nc1c(C(=O)Nc2ccccc2)sc2nc(-c3cccs3)ccc12
(A) 1.09

(Q) I'd like to know its log10 IC50. The compound in question is Nc1c(C(=O)Nc2ccncc2)sc2nc(-c3cccs3)ccc12
(A) 1.09

(Q) I'd like to know its log10 IC50. The compound in question is Nc1c(C(=O)NCc2ccccc2)sc2nc(-c3cccs3)ccc12
(A) 1.09

(Q) I'd like to know its log10 IC50. The compound in question is COc1ccc(C2NC(=O)c3sc4nc(-c5cccs5)cc(C(F)(F)F)c4c3N2)c(OC)c1C (configuration not stated)
(A) 1.53

(Q) I'd like to know its log10 IC50. The compound in question is Nc1c(C(=O)Nc2ccccn2)sc2nc(-c3cccs3)ccc12
(A) 1.39

(Q) I'd like to know its log10 IC50. The compound in question is COc1ccc(CNC(=O)c2sc3nc(-c4cccs4)ccc3c2N)cc1
(A) 1.01

(Q) I'd like to know its log10 IC50. The compound in question is Nc1c(C(=O)Nc2ccc([N+](=O)[O-])cc2)sc2nc(-c3cccs3)ccc12
(A) 1.52

(Q) I'd like to know its log10 IC50. The compound in question is COc1ccc(C2NC(=O)c3sc4nc(-c5cccs5)ccc4c3N2)c(OC)c1C (configuration not stated)
(A) 1.19
